molecular target: UniProtKB P06493; assay: FlashPlate kinase assay, cyclin B-CDK1, Rb substrate; format: biochemical; conditions: recombinant cyclin B-CDK1, Rb phosphorylation, 1 μM ATP
Sequence (P06493 whole entry): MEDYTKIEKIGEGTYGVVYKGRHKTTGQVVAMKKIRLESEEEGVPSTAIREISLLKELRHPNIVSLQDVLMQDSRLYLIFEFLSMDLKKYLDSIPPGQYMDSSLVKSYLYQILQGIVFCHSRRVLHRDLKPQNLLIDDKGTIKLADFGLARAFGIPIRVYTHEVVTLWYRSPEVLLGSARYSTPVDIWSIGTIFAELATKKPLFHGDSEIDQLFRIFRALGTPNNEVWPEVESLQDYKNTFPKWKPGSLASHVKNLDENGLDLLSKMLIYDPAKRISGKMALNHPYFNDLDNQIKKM
Sequence (P14635 whole entry partner): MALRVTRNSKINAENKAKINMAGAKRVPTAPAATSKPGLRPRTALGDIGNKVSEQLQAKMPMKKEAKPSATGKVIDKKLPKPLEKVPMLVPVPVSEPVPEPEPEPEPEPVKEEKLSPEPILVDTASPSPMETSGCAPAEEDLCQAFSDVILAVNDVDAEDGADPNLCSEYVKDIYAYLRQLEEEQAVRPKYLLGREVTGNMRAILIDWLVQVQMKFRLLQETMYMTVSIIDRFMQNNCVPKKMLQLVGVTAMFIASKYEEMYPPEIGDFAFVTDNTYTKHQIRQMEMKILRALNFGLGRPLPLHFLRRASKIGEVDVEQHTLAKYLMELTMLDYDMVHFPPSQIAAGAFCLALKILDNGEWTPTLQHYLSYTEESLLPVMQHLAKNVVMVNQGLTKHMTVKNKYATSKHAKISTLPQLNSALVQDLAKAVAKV
property name: IC50 (µM)

// worked examples, IC50 included
CCc1cc(C(=O)c2sc(Nc3ccc(OC[C@@H](C)N(C)C)cc3)nc2N)ccc1F; 7.8
CN(C)C(C)(C)COc1ccc(Nc2nc(N)c(C(=O)c3cccc(F)c3)s2)cc1; 0.613
CCN1CCCC(Oc2ccc(Nc3nc(N)c(C(=O)c4cccc(C)c4)s3)cc2)C1 (centres unmarked); 0.806
CN(C)CCOc1ccc(Nc2nc(N)c(C(=O)c3ccc4c(c3)OCCO4)s2)cc1; 0.884

A: CCNCCOc1ccc(Nc2nc(N)c(C(=O)c3ccc(F)c(CC)c3)s2)cc1
B: CCNCCOc1ccc(Nc2nc(N)c(C(=O)c3cccc(C)c3)s2)cc1
C: C[C@H](COc1ccc(Nc2nc(N)c(C(=O)c3cccc(C4CC4)c3)s2)cc1)N1CCCC1
D: CCNCCOc1ccc(Nc2nc(N)c(C(=O)c3cccc(F)c3)s2)cc1
Exercise: Ordering criterion: IC50; begin with the maximum. Quick reminder: the answer is the labels in the order asked.
Key: A, C, B, D
(A: 3.51 µM, C: 2.07 µM, B: 0.731 µM, D: 0.298 µM)
